Each item that follows carries a reported IC50.
Test system: MV4; 11 cells
assayDetails: Test 1: Test for evaluating the inhibition of cell proliferation
Format: cell-based
conditionInfo: cultured for 7 days, PrestoBlue cell viability
Entry rule: numbers only, all in nM.

Worked set:
1. CC(C)N(C(=O)c1cc(F)ccc1-n1cc(C2=CC3CCC(C2)N3C(=O)[C@H]2NC3CCC2CC3)c2ccncc21)C(C)C (single isomer, unassigned) [Example 19b]; 140
2. C=C1C[C@@H]2CC[C@H]1[C@@H](C(=O)N1CCCC(c3cn(-c4ccc(F)cc4C(=O)N(C)C(C)C)c4cnccc34)CCC1)N2; 240

Now for the molecule whose IC50 we want.
Indicate its recorded IC50; the molecule in question is C=C1C[C@@H]2CC[C@H]1[C@@H](C(=O)N1CCCC(c3cn(-c4ccc(F)cc4C(=O)N(C(C)C)C(C)C)c4cnccc34)CCC1)N2
730

###

Test system: MV4; 11 cells
assayDetails: Test 1: Test for evaluating the inhibition of cell proliferation
Type: cell-based
conditionInfo: Homo sapiens, MV4-11, 168 h, cultured for 7 days, PrestoBlue cell viability
Protocol: MV4; 11 cells were obtained from American Type Culture Collection (ATCC). The cells were cultured at 37° C. in the presence of 5% CO2 in RPMI 1640 medium containing 10% fetal bovine serum and 1% penicillin/streptomycin. The cells were plated to a 96-well plate in 2000 cells/well, each test compound was added thereto to adjust the final concentration of DMSO to 0.1% of DMSO, and the cells were cultured for 7 days. […]
propertyLabel: pIC50
pIC50 here: minus log base 10 of the concentration, concentration in moles per litre.

1) CC(C)N(C(=O)c1cc(F)ccc1-n1cc(C2CCN(C(=O)[C@H]3NC4CCC3CC4)CC2)c2ccncc21)C(C)C; 6.59
2) CC(C)N(C(=O)c1cc(F)ccc1-n1cc(C2=CCCN(C(=O)[C@H]3NC4CCC3CC4)CCC2)c2ccncc21)C(C)C; 5.66

Now for the compound whose pIC50 we want.
State recorded pIC50 with MV4; 11 cells, entry CC(C)N(C)C(=O)c1cc(F)ccc1-n1cc(C2CCCN(C(=O)[C@H]3N[C@@H]4CC[C@H]3C4)CC2)c2ccncc21 (mixture of isomers) , no comment.
7.05

###

systemUnderTest: hERG (human Ether-a-go-go Related Gene) (Homo sapiens (Human), UniProt Q12809)
Sequence (Q12809 whole entry): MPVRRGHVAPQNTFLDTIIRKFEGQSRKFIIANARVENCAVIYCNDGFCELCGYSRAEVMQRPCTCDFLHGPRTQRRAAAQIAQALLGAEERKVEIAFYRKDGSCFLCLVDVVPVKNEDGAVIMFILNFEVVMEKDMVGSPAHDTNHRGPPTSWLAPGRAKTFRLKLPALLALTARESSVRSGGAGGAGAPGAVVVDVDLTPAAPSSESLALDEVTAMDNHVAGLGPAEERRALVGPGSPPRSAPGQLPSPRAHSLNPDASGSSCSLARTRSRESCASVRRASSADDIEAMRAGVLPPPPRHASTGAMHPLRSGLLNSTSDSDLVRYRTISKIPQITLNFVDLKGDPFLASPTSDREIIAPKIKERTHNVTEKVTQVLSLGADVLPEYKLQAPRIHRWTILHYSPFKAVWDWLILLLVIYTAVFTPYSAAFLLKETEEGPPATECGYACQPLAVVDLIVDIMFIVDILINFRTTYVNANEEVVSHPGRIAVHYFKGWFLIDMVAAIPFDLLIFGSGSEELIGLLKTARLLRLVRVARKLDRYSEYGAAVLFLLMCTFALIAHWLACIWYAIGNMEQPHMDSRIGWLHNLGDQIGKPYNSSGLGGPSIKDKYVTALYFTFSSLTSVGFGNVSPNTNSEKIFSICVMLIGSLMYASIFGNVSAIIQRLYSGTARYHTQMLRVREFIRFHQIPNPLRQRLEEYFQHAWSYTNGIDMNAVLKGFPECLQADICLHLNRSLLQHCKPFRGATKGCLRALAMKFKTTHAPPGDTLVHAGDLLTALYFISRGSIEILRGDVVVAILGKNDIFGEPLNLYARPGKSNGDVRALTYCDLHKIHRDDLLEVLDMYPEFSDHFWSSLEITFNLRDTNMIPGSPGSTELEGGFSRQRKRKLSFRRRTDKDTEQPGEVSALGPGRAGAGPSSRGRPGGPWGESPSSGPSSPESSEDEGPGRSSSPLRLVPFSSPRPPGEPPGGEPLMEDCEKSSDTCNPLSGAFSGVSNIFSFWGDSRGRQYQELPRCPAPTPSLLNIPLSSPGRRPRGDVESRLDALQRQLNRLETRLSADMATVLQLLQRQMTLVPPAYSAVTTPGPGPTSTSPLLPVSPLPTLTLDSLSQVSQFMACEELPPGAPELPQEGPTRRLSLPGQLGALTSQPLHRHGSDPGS
assayDetails: Test 2: Test for the hERG inhibition (QPatch HT, CHO cell strain stably expressing hERG)
conditionInfo: hERG IC50 divided by MV4; 11 proliferation IC50
Each item that follows carries a reported hERG/MV4; 11.
Note: the reply should be a number with no unit written.

1. CC(C)N(C)C(=O)c1cc(F)ccc1-n1cc(C2CCCN(C(=O)[C@H]3N[C@@H]4CC[C@H]3C4)CC2)c2ccncc21 (some centres unmarked) [Example 10]; 621
2. CC(C)N(C(=O)c1cc(F)ccc1-n1cc(C2=CCCN(C(=O)[C@H]3NC4CCC3CC4)CCC2)c2ccncc21)C(C)C [Example 14]; 1.5
3. CC(C)N(C(=O)c1cc(F)ccc1-n1cc(C2=CC3CCC(C2)N3C(=O)[C@H]2NC3CCC2CC3)c2ccncc21)C(C)C (single isomer, unassigned) [Example 19b]; 32

Indicate its recorded hERG/MV4; 11; the molecule in question is CC(C)N(C(=O)c1cc(F)ccc1-n1cc(C2CCN(C(=O)[C@H]3NC4CCC3CC4)CC2)c2ccncc21)C(C)C [Example 1]
114

###

Each item that follows carries a reported log10 of IC50.
systemUnderTest: UniProt:Q12809
assayDetails: Test 2: Test for the hERG inhibition (QPatch HT, CHO cell strain stably expressing hERG)
conditionInfo: hERG IC50, hERG current, CHO cells stably expressing hERG, QPatch HT
Values reflect log10 of reported IC50 (µM).

Worked set:
1. CC(C)N(C(=O)c1cc(F)ccc1-n1cc(C2=CC3CCC(C2)N3C(=O)[C@H]2NC3CCC2CC3)c2ccncc21)C(C)C (single isomer, unassigned) [Example 19a]; 0.78
2. CC(C)N(C(=O)c1cc(F)ccc1-n1cc(C2=CCCN(C(=O)[C@H]3NC4CCC3CC4)CCC2)c2ccncc21)C(C)C; 0.51
3. CC(C)N(C(=O)c1cc(F)ccc1-n1cc(C2=CC3CCC(C2)N3C(=O)[C@H]2NC3CCC2CC3)c2ccncc21)C(C)C (single isomer, unassigned) [Example 19b]; 0.65

State recorded log10 of IC50 with UniProt:Q12809, entry CC(C)N(C)C(=O)c1cc(F)ccc1-n1cc(C2CCCN(C(=O)[C@H]3N[C@@H]4CC[C@H]3C4)CC2)c2ccncc21 (mixture of isomers) , no comment.
1.74

State recorded log10 of IC50 with UniProt:Q12809, entry CC(C)N(C(=O)c1cc(F)ccc1-n1cc(C2CCN(C(=O)[C@H]3NC4CCC3CC4)CC2)c2ccncc21)C(C)C , no comment.
1.48
